This section presents molecules with their documented composite z-score values.
assay_remarks: small-molecule microarray binders of probe aShh, primary screen, biochemical, biotinylated probe, 635/667 nm fluorescence (AID 1114);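 further: probe is biotin-labelled aShh protein from a stem cell growth factor screen; measures binding of labelled protein to compounds printed on the slide; score merges feature fluorescence at 667 nm with signal-to-noise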
reported_conditions: higher = more signal

>  <molecule>
C=C(C(=O)CC[C@@H](OC(C)=O)c1cccc(OCCO)c1)C(C)C

>  <composite z-score>
-0.223

$$$$
>  <molecule>
COc1ccc(CCNC(=O)[C@@H]2c3ccccc3C(=O)N(CC34CC5CC(CC(C5)C3)C4)[C@H]2c2ccc(CO)cc2)cc1

>  <composite z-score>
0.0381

$$$$
>  <molecule>
COCC1=C([C@H](O)CCc2ccccc2)[C@H](CO)n2c(=O)n(-c3ccccc3)c(=O)n2C1

>  <composite z-score>
-0.0553

$$$$
>  <molecule>
COc1ccc(CCNC(=O)[C@@]2(Sc3ccc(C)cc3)CC(=O)N(Cc3cc(C(F)(F)F)cc(C(F)(F)F)c3)[C@@H]2c2ccc(CO)cc2)cc1

>  <composite z-score>
-0.117

$$$$
>  <molecule>
N[C@@H](Cc1ccccc1)Cn1cc(C2(O)CCCCC2)nn1

>  <composite z-score>
0.23

$$$$
>  <molecule>
CCCC[C@H]1OB(O)C[C@H]2C1=C(C)C[C@H]1C(=O)C=CC(=O)[C@H]12

>  <composite z-score>
0.0278

$$$$
>  <molecule>
COc1ccc(C#Cc2ccc3c(c2)[C@]2(C(=O)N3)[C@H](C(=O)Nc3nc4ccccc4s3)[C@H]3C(=O)O[C@H](c4ccccc4)[C@H](c4ccccc4)N3[C@@H]2c2ccc(OCCO)cc2)cc1

>  <composite z-score>
0.337

$$$$
>  <molecule>
O=C1O[C@H](c2ccccc2)[C@H](c2ccccc2)N2[C@H]1[C@@H](C(=O)N1CCN(c3ncccn3)CC1)[C@]1(C(=O)Nc3ccccc31)[C@H]2c1ccc(O)cc1

>  <composite z-score>
-0.119

$$$$
>  <molecule>
CCOC(=O)C1=CC[C@@H](c2ccccc2)N(S(=O)(=O)C[Si](C)(C)C)[C@H]1c1ccccc1

>  <composite z-score>
-0.2

$$$$
>  <molecule>
O=C1OCCC/C=C\[C@H]2OC34C=CCN(Cc5ccccc5)C(=O)[C@H]3N(CCCCCO)C(=O)[C@@H]4C12 (some centres not stated)

>  <composite z-score>
0.0121

$$$$
>  <molecule>
C[N+](C)(C)CCCCCCNC(=O)[C@@H]1C[C@@H]2C(=O)N[C@@H](Cc3ccccc3)C(=O)N2[C@@H]1c1ccc(O)cc1

>  <composite z-score>
-0.156

$$$$
>  <molecule>
C=CC(CO)NC(=O)OCC1c2ccccc2-c2ccccc21 (configuration not stated)

>  <composite z-score>
-0.426

$$$$
>  <molecule>
COc1ccccc1CN1C(=O)c2ccccc2[C@@H](C(=O)NCCCN(C)C)[C@@H]1c1ccc(CO)cc1

>  <composite z-score>
-0.0263

$$$$
>  <molecule>
CCCC[C@@H]1C[C@H]1[C@@H](NC(=O)c1ccc(C(F)(F)F)cc1)c1ccc(C(=O)OC)cc1

>  <composite z-score>
2.11

$$$$
>  <molecule>
C[C@H]1C2[C@H](Cc3ccccc3)NC(=O)[C@]23C(=O)NCC(=O)N2CCC[C@H]2C(=O)NC/C=C\C/C=C/C3[C@@H]2O[C@]12C (some centres not stated)

>  <composite z-score>
-0.2

$$$$
>  <molecule>
C#CCN=C(N)N

>  <composite z-score>
-0.0813

$$$$
>  <molecule>
COCCOC(=O)N1C(=O)[C@@]2(c3cc(C#CC4(O)CCCCCC4)ccc31)[C@H](c1ccc(OCCO)cc1)N1[C@H](c3ccccc3)[C@H](c3ccccc3)OC(=O)[C@H]1[C@@H]2C(N)=O

>  <composite z-score>
0.199

$$$$

* * *

assay_remarks: osmotic lysis modulators in infected erythrocytes, primary screen, PSAC antagonist project, cell-based, P. falciparum Indochina, OD700, 3 h (AID 1156)
reported_conditions: higher = more signal, called active from +8 up or from −8 down
property_label: z-score

>  <chem_smiles>
COC(=O)c1c(CC[C@@H](CO)NC(=O)N[C@@H](Cc2ccccc2)Cn2cc(-c3cncn3C)nn2)oc(C(C)=O)c1C(=O)OC

>  <recorded_value>
1.29

$$$$
>  <chem_smiles>
COCCOC(=O)N1C(=O)[C@@]2(c3cc(C#CCCO)ccc31)[C@H](c1ccc(O)cc1)N1[C@H](c3ccccc3)[C@H](c3ccccc3)OC(=O)[C@H]1[C@@H]2C(=O)N1CCc2cc(OC)c(OC)cc2C1

>  <recorded_value>
0.203

$$$$
>  <chem_smiles>
C=CCNC(=O)[C@H]1[C@@H]2C(=O)O[C@@H](c3ccccc3)[C@@H](c3ccccc3)N2[C@@H](c2ccccc2OCCO)[C@]12C(=O)N(C(=O)OCCOC)c1ccccc12

>  <recorded_value>
-0.337

$$$$

* * *

Let's look at some compounds and their measured composite z-score.
System: Chordin-like protein 2 (CHRDL2)
assay_remarks: CHRDL2 small-molecule binders, primary screen, biochemical, small-molecule microarray, 635 nm fluorescence (AID 1126);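 further: printed compound slides probed with Chrdl2 protein at 4 µg/mL for 1 h at 4 C; score merges 667 nm emission intensity with signal to noise over three replicate slides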
reported_conditions: small-molecule microarray binding, fluorescence 635 nm; higher = more signal

>  <compound>
C=CC[C@]1(C(=O)N(C)C)COC(c2ccc(OCCCO)cc2)=N1

>  <target_system>
Chordin-like protein 2 (CHRDL2)

>  <composite z-score>
-0.492

$$$$
>  <compound>
C/C=C/CN(C(=O)C#Cc1ccccc1)[C@H](CO[Si](C)(C)C(C)(C)C)c1ccccc1

>  <target_system>
Chordin-like protein 2 (CHRDL2)

>  <composite z-score>
-0.553

$$$$
>  <compound>
CC(C)CNC(=O)[C@@H]1c2ccccc2C(=O)N(Cc2ccccc2Cl)[C@H]1c1ccc(CO)cc1

>  <target_system>
Chordin-like protein 2 (CHRDL2)

>  <composite z-score>
-0.686

$$$$
>  <compound>
C=CCC(OC(C)=O)[C@@H]1[C@@H](N(Cc2cccc3ccccc23)C(=O)c2cccc3ccccc23)c2cc(OCCCO)ccc2N1C(=O)Cc1ccc2ccccc2c1 (stereo partly specified)

>  <target_system>
Chordin-like protein 2 (CHRDL2)

>  <composite z-score>
0.295

$$$$
>  <compound>
C=CCNC(=O)[C@@H]1[C@H]2C(=O)O[C@H](c3ccccc3)[C@H](c3ccccc3)N2[C@H](c2ccccc2OCCO)[C@@]12C(=O)N(C(=O)OCCOC)c1ccc(C#CCCO)cc12

>  <target_system>
Chordin-like protein 2 (CHRDL2)

>  <composite z-score>
0.0117

$$$$
>  <compound>
CN1C=C(C(=O)OCCS(C)(=O)=O)C(C(=O)OCCS(C)(=O)=O)=CC(CCCO)=CC1c1ccc(CN2CCCC2)cc1 (stereo unspecified)

>  <target_system>
Chordin-like protein 2 (CHRDL2)

>  <composite z-score>
0.369

$$$$

* * *

target_system: Follistatin-related protein 3 (Homo sapiens)
assay_remarks: FSTL3 binders on small-molecule microarrays, primary screen, biochemical, small-molecule microarray, 635 nm fluorescence (AID 1105);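 further: score merges emission near 667 nm and signal to noise per printed spot across three slides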
reported_conditions: FSTL3 binding, higher = more signal
property_label: composite z-score

>  <compound>
CCCC[C@@H]1C[C@H]1[C@@H](NC(=O)c1ccc(C(F)(F)F)cc1)c1ccc(C(=O)OC)cc1

>  <recorded_value>
1.09

$$$$
>  <compound>
C=CC[C@@]12N=C(c3ccc(OCCCO)cc3)O[C@@H]1c1ccccc1N(Cc1ccccc1)C2=O

>  <recorded_value>
1.48

$$$$
>  <compound>
COCCOC(=O)N1C(=O)[C@@]2(c3cc(C#CCC(C(=O)OC)C(=O)OC)ccc31)[C@H](C(N)=O)[C@H]1C(=O)O[C@H](c3ccccc3)[C@H](c3ccccc3)N1[C@@H]2c1ccc(OCCO)cc1

>  <recorded_value>
1.01

$$$$
>  <compound>
C=C(CCCC)/C(=C/C[C@H](OC(C)=O)c1cccc(OCCO)c1)c1cc(C(=O)OC)ccc1OC

>  <recorded_value>
-0.574

$$$$
>  <compound>
Cc1ccccc1C(O)C1C=CC2C(=O)N(c3ccccc3)C(=O)C2N1Nc1ccccc1F (stereo not given)

>  <recorded_value>
0.836

$$$$
>  <compound>
CCOC(=O)C1=C(C(=O)OCC)N(S(=O)(=O)CC[Si](C)(C)C)[C@H](c2ccccc2)CC1

>  <recorded_value>
0.971

$$$$
>  <compound>
CCCC[C@@H](O)C1=C(COC)Cn2c(=O)n(-c3ccccc3)c(=O)n2[C@H]1CO

>  <recorded_value>
-0.0013

$$$$
>  <compound>
C=CC[C@]1(C(=O)NCc2ccccc2)COC(c2ccc(OCCCO)cc2)=N1

>  <recorded_value>
0.101

$$$$
>  <compound>
CN(C)CCCC[C@@H]1NC(=O)[C@H]2C[C@@H](C(=O)O)[C@@H](c3cccc(OCCO)c3)N2C1=O

>  <recorded_value>
0.666

$$$$
>  <compound>
COCCOC(=O)N1C(=O)[C@@]2(c3cc(C#CC4(O)CCCCCC4)ccc31)[C@H](C(=O)NC[C@H](O)c1ccccc1)[C@H]1C(=O)O[C@H](c3ccccc3)[C@H](c3ccccc3)N1[C@@H]2c1ccc(O)cc1

>  <recorded_value>
0.334

$$$$
>  <compound>
C#CCN(C/C=C/c1ccccc1)[C@H](CO[Si](C)(C)C(C)(C)C)c1ccccc1

>  <recorded_value>
-0.261

$$$$
>  <compound>
COc1ccc(CCNC(=O)[C@@]2(C)c3ccccc3C(=O)N(Cc3cc(C(F)(F)F)cc(C(F)(F)F)c3)[C@H]2c2ccc(CO)cc2)cc1

>  <recorded_value>
0.371

$$$$
>  <compound>
COCCOC(=O)N1C(=O)[C@@]2(c3cc(C#CCC(C(=O)OC)C(=O)OC)ccc31)[C@H](c1ccc(OCCO)cc1)N1[C@H](c3ccccc3)[C@H](c3ccccc3)OC(=O)[C@H]1[C@@H]2C(=O)N1CCCCCCC1

>  <recorded_value>
1.66

$$$$
>  <compound>
COc1ccc(CCNC(=O)[C@@]2(Sc3ccc(C)cc3)CC(=O)N(C(C)C)[C@@H]2c2ccc(CO)cc2)cc1

>  <recorded_value>
-1.45

$$$$
>  <compound>
O=C1N(Cc2ccccc2)c2ccccc2[C@H]2OC(c3ccc(OCCCO)cc3)=N[C@@]12Cc1ccccc1

>  <recorded_value>
0.582

$$$$
>  <compound>
CCCCCCCCCCC(O)C1C=CC2C(=O)N(C)C(=O)C2N1N1CCCCC1 (stereo not given)

>  <recorded_value>
-1.63

$$$$
>  <compound>
N#Cc1ccc(C(O)C2C=CC3C(=O)N(c4ccccc4)C(=O)C3N2Nc2ccc([N+](=O)[O-])cc2)cc1 (stereo not given)

>  <recorded_value>
0.516

$$$$
>  <compound>
CC(C)(C)OC(=O)CC[C@]1(C(=O)N2CCOCC2)N=C(c2ccc(OCCCO)cc2)O[C@H]1c1ccccc1CN=[N+]=[N-]

>  <recorded_value>
1.08

$$$$
>  <compound>
COCCOC(=O)N1C(=O)[C@@]2(c3cc(C#CC4(O)CCCCCC4)ccc31)[C@H](c1ccc(OCCO)cc1)N1[C@H](c3ccccc3)[C@H](c3ccccc3)OC(=O)[C@H]1[C@@H]2C(N)=O

>  <recorded_value>
1.22

$$$$
>  <compound>
CCN(CC)c1ccc(N2CC=CC34O[C@@H]5C=CCOC(=O)[C@@H]5[C@H]3C(=O)N(CCCO)[C@@H]4C2=O)cc1 (stereo not given in full)

>  <recorded_value>
-0.69

$$$$
